B1: glmS ribozyme (parent)
chain: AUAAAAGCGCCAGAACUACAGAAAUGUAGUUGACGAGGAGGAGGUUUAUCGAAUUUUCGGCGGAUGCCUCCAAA

variants of: B1; test: kcat; higher = faster cleavage; RNA array; details: with glucosamine-6-phosphate
Variants at the floor of the assay were thinned out.
Overview of recorded kcat for various variants

mutation notation: A6U A52U
qualifier symbol: <
kcat [s⁻¹]: 1e-05
--
mutation notation: A15U A33G
qualifier symbol: <
kcat [s⁻¹]: 1e-05
--
mutation notation: A36U C50A
qualifier symbol: <
kcat [s⁻¹]: 1e-05
--
mutation notation: A53C U54A
qualifier symbol: =
kcat [s⁻¹]: 0.00804
--
mutation notation: A39C A64C
qualifier symbol: =
kcat [s⁻¹]: 4.47e-05
--
mutation notation: U46A U47C
qualifier symbol: =
kcat [s⁻¹]: 0.00192
--
mutation notation: G13U U55G
qualifier symbol: =
kcat [s⁻¹]: 0.00153
--
mutation notation: A12U G43C
qualifier symbol: =
kcat [s⁻¹]: 1.4e-05
--
mutation notation: A52G G60U
qualifier symbol: <
kcat [s⁻¹]: 1e-05
--
mutation notation: G35C C58U
qualifier symbol: <
kcat [s⁻¹]: 1e-05
--
mutation notation: U54G C61G
qualifier symbol: =
kcat [s⁻¹]: 1.78e-05
--
mutation notation: A15U U46A
qualifier symbol: =
kcat [s⁻¹]: 0.000378
--
mutation notation: G43U
qualifier symbol: =
kcat [s⁻¹]: 4.89e-05
--
mutation notation: A48G C71U
qualifier symbol: =
kcat [s⁻¹]: 8.1e-05
--
mutation notation: C10G A12C
qualifier symbol: =
kcat [s⁻¹]: 3.86e-05
--
mutation notation: C34G U46G C50U C67U
qualifier symbol: =
kcat [s⁻¹]: 1.54e-05
--
mutation notation: A15C C58U
qualifier symbol: =
kcat [s⁻¹]: 3.18e-05
--
mutation notation: G7U C67U
qualifier symbol: <
kcat [s⁻¹]: 1e-05
--
mutation notation: G32C C71G
qualifier symbol: =
kcat [s⁻¹]: 1.39e-05
--
mutation notation: G37A U46G
qualifier symbol: =
kcat [s⁻¹]: 0.000363
--
mutation notation: A42U U45A
qualifier symbol: =
kcat [s⁻¹]: 0.000149
--
mutation notation: A14U C70U C71G
qualifier symbol: =
kcat [s⁻¹]: 4.59e-05
